biological target: Cytochrome P450 2C19 (Homo sapiens) (UniProt P33261); experiment: qHTS Assay for Inhibitors and Substrates of Cytochrome P450 2C19 (AID 899); conditions: recombinant CYP2C19, luciferin-H EGE luminescence; series mostly up to 11.4 µM; note: nearly all actives have a fitted effect of over 60% in size
Sequence (P33261 whole entry, looked up): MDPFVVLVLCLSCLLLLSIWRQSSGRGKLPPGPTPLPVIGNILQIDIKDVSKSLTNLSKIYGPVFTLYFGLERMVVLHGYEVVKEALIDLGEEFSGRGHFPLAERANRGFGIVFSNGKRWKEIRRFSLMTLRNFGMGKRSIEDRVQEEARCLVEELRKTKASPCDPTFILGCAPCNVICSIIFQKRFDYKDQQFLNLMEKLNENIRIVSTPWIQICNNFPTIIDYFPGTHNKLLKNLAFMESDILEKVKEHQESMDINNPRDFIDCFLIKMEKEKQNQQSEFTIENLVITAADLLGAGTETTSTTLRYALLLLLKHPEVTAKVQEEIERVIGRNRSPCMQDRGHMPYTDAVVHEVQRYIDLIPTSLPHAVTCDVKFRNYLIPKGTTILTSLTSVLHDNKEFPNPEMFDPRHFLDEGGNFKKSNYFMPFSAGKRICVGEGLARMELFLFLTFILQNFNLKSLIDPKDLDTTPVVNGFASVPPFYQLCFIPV
Inconclusive results are not listed. Active and inactive are the calls of the source. Calls come from the whole dose curve; as a rule, active = well fitted inhibition curve with a large enough effect; inconclusive = small, poorly fitted or top-dose-only effect; inactive = no such curve, though single readings can be large or run the other way.
Answer with one of the outcomes True (active), False (inactive)

Query block: Any idea what this test logged for `CN[C@]1(C)[C@@H]2CC[C@@H](C2)C1(C)C` ?
Result block: False

Query block: Any idea what this test logged for `O=S1(=O)[C@H]([C@H]2CC3c4ccccc4C2c2ccccc23)[C@@H](N2CCCCC2)[C@@H]1c1ccccc1` ?
Result block: True

Query block: Any idea what this test logged for `Cc1ccc(S(=O)(=O)Nc2ccccc2C=O)cc1` ?
Result block: True

Query block: Any idea what this test logged for `Cc1[nH]c(N)nc(=S)c1CCCNc1ccccc1` ?
Result block: True

Query block: Any idea what this test logged for `CC(C)[C@@H]1OC(=O)C=CC=CC=CC=CC=CC[C@@H](O)[C@H](C)[C@@H](O)C[C@H](O)C[C@H](O)C[C@H](O)C[C@H](O)C[C@H](O)C[C@H](O)C=C[C@@H]1C` ?
Result block: False

Query block: Any idea what this test logged for `CCCCC[C@H](CC(=O)NO)C(=O)N[C@@H](C(=O)N1CCC[C@H]1CO)C(C)C` ?
Result block: False

Query block: Any idea what this test logged for `O=C(O)C/C(=C\c1ccco1)C(=O)O` ?
Result block: False

Query block: Any idea what this test logged for `CC[N+](C)(CC)CCN1C(=O)c2ccccc2S1(=O)=O` ?
Result block: False

Query block: Any idea what this test logged for `Cn1c(=O)c2[nH]c(CCCCc3nc4ccccc4[nH]3)nc2n(C)c1=O` ?
Result block: False

Query block: Any idea what this test logged for `N#Cc1c(NC(=O)C(F)(F)F)sc2c3c(=O)c4ccccc4c(=O)c=3oc3ccccc3c12` ?
Result block: True

Query block: Any idea what this test logged for `Nc1ncnc2nc[nH]c12.Nc1ncnc2nc[nH]c12.[Cl][Pt]([Cl])([Cl])[Cl]` ?
Result block: False

Query block: Any idea what this test logged for `O=C(O)CSc1n[nH]c(=O)[nH]c1=O` ?
Result block: False

Query block: Any idea what this test logged for `C[N+](C)(N)CCC[N+](C)(C)N` ?
Result block: False

Query block: Any idea what this test logged for `O=C1c2ccccc2C(O)(O)[C@@]1(O)[C@]1(O)C(=O)c2ccccc2C1(O)O` ?
Result block: False

Query block: Any idea what this test logged for `Cn1c(=O)c2c(nc(Cc3ccccc3)n2CC(=O)O)n(C)c1=O` ?
Result block: False

Query block: Any idea what this test logged for `COc1ccc(-c2csc3c2[N+]2=CCC=C2C3=O)cc1` ?
Result block: True

Query block: Any idea what this test logged for `Clc1nc(NCCc2ccccc2)c2ncn(-c3ccccc3)c2n1` ?
Result block: True

Query block: Any idea what this test logged for `COc1ccc2c(Cc3c4ccccc4cc4ccccc34)cncc2c1O` ?
Result block: True

Query block: Any idea what this test logged for `Nc1[nH]c(=S)[nH]c(=O)c1N=Nc1c(Br)cc(S(N)(=O)=O)cc1Br` ?
Result block: False

Query block: Any idea what this test logged for `Cn1c([N+](=O)[O-])cnc1CN1CCN(CCO)CC1` ?
Result block: False

Query block: Any idea what this test logged for `Cn1ncc2c(NCCc3ccccc3)nc(Cl)nc21` ?
Result block: True

Query block: Any idea what this test logged for `COc1ccc(Oc2ncc3nc(CCc4ccccc4)c(=O)n(C4CC4)c3n2)cc1` ?
Result block: True

Query block: Any idea what this test logged for `Nc1nc(SCCc2ccccc2)c2[nH]cnc2n1` ?
Result block: True

Query block: Any idea what this test logged for `CC1=C/C(=C(/c2ccc(O)c(C)c2)c2ccccc2C(=O)O)C=CC1=O` ?
Result block: True

Query block: Any idea what this test logged for `C[N@+]1(CCC(=O)c2ccccc2)CC[C@H]2CC[C@H](C2)C1` ?
Result block: False

Query block: Any idea what this test logged for `O=C(CCN1CCCCC1)N1CCc2c([nH]c3ccccc23)[C@H]1c1cccnc1` ?
Result block: False

Query block: Any idea what this test logged for `O=C(SCc1cccc2ccccc12)c1ccc(Cl)cc1` ?
Result block: True

Query block: Any idea what this test logged for `O=C1c2ccccc2N[C@H](c2cc(Cl)cc(Cl)c2O)N1CCc1ccccn1` ?
Result block: True

Query block: Any idea what this test logged for `Cc1cc(O)c(C(C)C)cc1N=Cc1ccccc1O` ?
Result block: True

Query block: Any idea what this test logged for `CC(C)CNC(=O)O` ?
Result block: False

Query block: Any idea what this test logged for `Nc1ccc(N(S(=O)(=O)c2ccccc2)S(=O)(=O)c2ccccc2)c(Cl)c1` ?
Result block: True

Query block: Any idea what this test logged for `O[C@@H](C1=C/C(=C\c2ccncc2)c2ccccc21)c1ccncc1` ?
Result block: True

Query block: Any idea what this test logged for `S[C@@H]1CCCN(Cc2ccccc2)C1` ?
Result block: True

Query block: Any idea what this test logged for `BrC(c1cccc2ccccc12)c1cccc2ccccc12` ?
Result block: True

Query block: Any idea what this test logged for `Cc1ccc(N(Cc2ccccc2)Cc2ccccc2)cc1` ?
Result block: True

Query block: Any idea what this test logged for `C[C@@H](COc1ccc(/C=C\c2ccccc2)cc1)[N+](C)(C)C` ?
Result block: False

Query block: Any idea what this test logged for `O=C1/C(=C/c2cccnc2)SC(=S)N1Cc1ccco1` ?
Result block: True

----------
Kindly supply the reported activity change, negative = inhibition values for the records listed here.
molecular target: Cytochrome P450 1A2 (Homo sapiens) (UniProt P05177); test: p450-cyp1a2 (AID 410); details: recombinant CYP1A2, luciferin-ME demethylation, luminescence; series mostly up to 11.4 µM;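 note: -100% = full effect of reference inhibitor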
Sequence (P05177 whole entry, looked up): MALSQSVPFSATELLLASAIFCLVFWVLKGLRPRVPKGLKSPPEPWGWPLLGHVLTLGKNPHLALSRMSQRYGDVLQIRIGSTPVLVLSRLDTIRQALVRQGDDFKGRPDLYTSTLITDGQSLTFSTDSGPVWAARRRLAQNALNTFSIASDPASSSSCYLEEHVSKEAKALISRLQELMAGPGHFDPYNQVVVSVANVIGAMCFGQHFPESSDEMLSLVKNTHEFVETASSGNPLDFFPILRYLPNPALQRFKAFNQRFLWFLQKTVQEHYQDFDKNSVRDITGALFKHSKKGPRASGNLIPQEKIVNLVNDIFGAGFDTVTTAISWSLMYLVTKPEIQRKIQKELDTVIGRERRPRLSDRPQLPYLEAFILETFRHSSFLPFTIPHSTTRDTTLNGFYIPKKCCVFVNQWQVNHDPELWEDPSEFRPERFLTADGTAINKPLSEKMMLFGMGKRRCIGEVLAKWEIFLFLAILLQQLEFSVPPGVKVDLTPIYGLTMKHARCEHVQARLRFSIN
Records with an inconclusive call do not appear. Activity calls are given as the source filed them. The call rests on the fitted dose curve.

Query block: // query activity change, negative = inhibition value for entry `O=C(O)c1ccc(C(=O)Nc2cccc3ccccc23)c(C(=O)O)c1`
Result block: -6.2% [at 2.29 µM] (inactive)

Query block: // query activity change, negative = inhibition value for entry `O=C(O)[C@@H]1[C@@H](C(=O)NCc2ccccn2)[C@@H]2C=C[C@@H]1O2`
Result block: -0.1% [at 2.29 µM] (inactive)

Query block: // query activity change, negative = inhibition value for entry `COc1ccc(CSC2=C(C#N)C(=O)NC3(CCCCC3)S2)cc1`
Result block: -5.8% [at 2.29 µM] (inactive)

Query block: // query activity change, negative = inhibition value for entry O=S(=O)(O)[C@@H](CO)c1ccccc1 (tested in a mixture with another compound)
Result block: -1.9% [at 2.29 µM] (inactive)

Query block: // query activity change, negative = inhibition value for entry `CN1CCc2nc(N)nc(-c3nc(N)nc4c3CN(C)CC4)c2C1`
Result block: -3.9% [at 2.29 µM] (inactive)

Query block: // query activity change, negative = inhibition value for entry `O=C1c2ccccc2C(=O)N1C[C@]1(C(=O)O)NCCS1(=O)=O`
Result block: -5.5% [at 2.29 µM] (inactive)

Query block: // query activity change, negative = inhibition value for entry `COC(=O)[C@]1(C)CCC(c2ccc(C)cc2)=C(CC(=O)O)C1`
Result block: -8.4% [at 2.29 µM] (inactive)

Query block: // query activity change, negative = inhibition value for entry `COc1ccc(OC)c(-c2cc(C(=O)O)c3cc4ccccc4cc3n2)c1`
Result block: -21.4% [at 2.29 µM] (inactive)

Query block: // query activity change, negative = inhibition value for entry `Cc1ccc(N[C@H](c2ccccc2)c2ccc3cccnc3c2O)cc1`
Result block: -24.5% [at 2.29 µM] (inactive)

Query block: // query activity change, negative = inhibition value for entry `c1cc2c(cc1C(N1CCNCC1)N1CCNCC1)OCO2`
Result block: -3% [at 2.29 µM] (inactive)

Query block: // query activity change, negative = inhibition value for entry `O=C(O)c1cc(=O)[nH]c(=S)[nH]1`
Result block: -10.7% [at 2.29 µM] (inactive)

Query block: // query activity change, negative = inhibition value for entry `CN1CCN(CC(=O)N2c3ccccc3Sc3cc4ccccc4cc32)CC1`
Result block: -21.6% [at 2.29 µM] (inactive)

Query block: // query activity change, negative = inhibition value for entry `O=C(O)CC1(C(=O)O)CCCCC1`
Result block: 5.1% [at 2.29 µM] (inactive)

Query block: // query activity change, negative = inhibition value for entry `N=c1ccn2c(n1)O[C@H]1[C@@H](OP(=O)(O)O)[C@H](CO)O[C@H]12`
Result block: -3.1% [at 2.29 µM] (inactive)

Query block: // query activity change, negative = inhibition value for entry `C[C@H]1O[C@@H](CC(=O)O)Cc2c1c(O)c1c(O)cc(-c3cc(=O)c4c(=O)c5c(c(=O)c=4c3=O)C[C@H](CC(=O)O)O[C@@H]5C)c(O)c1c2O`
Result block: -29.1% [at 2.29 µM] (inactive)

Query block: // query activity change, negative = inhibition value for entry `Nc1nc(-c2cccs2)cs1`
Result block: -30.1% [at 2.29 µM] (inactive)

Query block: // query activity change, negative = inhibition value for entry `Cc1ccc(N(Cc2ccccc2)Cc2ccccc2)cc1`
Result block: -24.2% [at 2.29 µM] (inactive)

Query block: // query activity change, negative = inhibition value for entry `Clc1ccccc1NN(Cc1ccccn1)c1ccccc1Cl`
Result block: -22.4% [at 2.29 µM] (inactive)
